Data provenance is PubChem BioAssay (Tox21).

Listed here are molecules together with their documented Potency.
Assay: qHTS assay to identify small molecule antagonists of the peroxisome proliferator-activated receptor gamma (PPARg) signaling pathway - cell viability counter screen (AID 743194); further: potency means the concentration at half of the fitted maximal effect; nearly all actives have a fitted effect of over 55% in size
Settings: PPARg-bla HEK293H viability, CellTiter-Glo luminescence, 17 h, co-treated with 50 nM rosiglitazone; series mostly up to 62.6 µM
Records with an inconclusive call do not appear. Calls of active or inactive are those of the source. The call rests on the fitted dose curve; in most records, active means well fitted cell-killing curve with a large enough effect in the repeat runs; inconclusive means weak or mixed curves, or effect the other way; inactive means no such curve, though single readings can be large or run the other way.

1. Oc1ccc(C2(c3ccc(O)cc3)CC3CC2C2CCCC32)cc1 (stereo not drawn): 26.5 µM (active)

q: # get_value(readout='Potency', item= C=CC(=O)OCCn1c(=O)n(CCOC(=O)C=C)c(=O)n(CCOC(=O)C=C)c1=O )
a: 13.8 µM (active)

q: I have this molecule here, CCCCCCCCCCCCCCCC[N+](C)(C)CCN(Cc1ccc(OC)cc1)c1ncccn1 , and I need its recorded Potency.
a: 26.6 µM (active)

###

Experiment: qHTS RealTime-Glo MT Cell Viability Assay in HepG2 cells - 32 hour (AID 1224877); further: potency means the concentration at half of the fitted maximal effect; nearly all actives have a fitted effect of over 55% in size
Settings: RealTime-Glo luminescence; series mostly up to 76.8 µM
Text: U.S. Tox21 Program National Center for Advancing Translational Sciences [NCATS] NIH Chemical Genomics Center [NCGC] U.S. Environmental Protection Agency [EPA] National Institutes of Environmental Health Sciences [NIEHS] National Toxicology Program [NTP] U.S. Food and Drug Administration [FDA] Tox21 Assay Overview: Measure of cell viability is critical in the cell-base assay. Analysis of cell viability is necessary for the characterization of cell responses to cytotoxic drugs and environmental stress. […]
Records with an inconclusive call do not appear. Calls of active or inactive are those of the source. The call rests on the fitted dose curve; in most records, active means well fitted cell-killing curve with a large enough effect in the repeat runs; inconclusive means weak or mixed curves; inactive means flat fitted curve, though single readings scatter.
quantity: Potency

1) C[n+]1cc2c3c(ccc2c2ccc4cc5c(cc4c21)OCO5)OCO3: 0.928 µM (active)

Now for another entry.
q: // query Potency value for entry CC(C)(C)c1ccc(C(=O)CCCN2CCC(OC(c3ccccc3)c3ccccc3)CC2)cc1
a: 19 µM (active)

###

Experiment: qHTS assay for identifying genotoxic compounds that show differential cytotoxicity against isogenic chicken DT40 cell lines with known DNA damage response pathways - Rad54/Ku70 mutant cell line (AID 743015); further: potency means the concentration at half of the fitted maximal effect; nearly all actives have a fitted effect of over 60% in size
Conditions: DT40 Rad54/Ku70 mutant viability, CellTiter-Glo, 40 h; series mostly up to 66.8 µM
Records with an inconclusive call do not appear. Active and inactive are the calls of the source. Calls come from the whole dose curve; as a rule, active = well fitted cell-killing curve with a large enough effect in the repeat runs; inconclusive = weak or mixed curves; inactive = no such curve, though single readings can be large or run the other way.
quantity: Potency

1. CCCN(CCC)C(=O)C(CCC(=O)OCCCN1CCN(CCOC(=O)Cc2c(C)n(C(=O)c3ccc(Cl)cc3)c3ccc(OC)cc23)CC1)NC(=O)c1ccccc1 (stereo not drawn): 23.7 µM (active)

q: If you can, please state the reported Potency value of CC(C)OC(=O)c1cc2c(OCC(O)CNC(C)(C)C)cccc2[nH]1 (stereo not drawn) .
a: 26.6 µM (active)
